- method_notes: Distribution in brain tissue and plasma of ICR mice after oral administration
- Type: in vivo
- experimental_conditions: mouse, 50 mg/kg PO, 0.5, 1 and 2 hours, LC-MS/MS, FIG. 2, read-out: concentration in the plasma tissue relative to that in the brain tissue
attribute_measured: Kp

compound	attribute_measured	value_measured
Cc1c(Cc2ccc(C(=O)NO)cc2)c2ccccc2n1CC1CCN(CC(C)(C)F)CC1 [Compound 528]	Kp	≥ 0.5

###

- target_desc: HDAC6 human recombinant (Homo sapiens)
- method_notes: HDAC6 enzyme activity inhibition (fluorimetric, in vitro)
- experimental_conditions: 37° C., 60 minutes; tested at 0.1, 1, 10, 100 and 1000 nM
attribute_measured: IC50 (nM)

compound	target_desc	attribute_measured	value_measured
Cc1c(Cc2ccc(C(=O)NO)cc2)c2ccccc2n1CCN1CCC(CO)C1 (centres unmarked)	HDAC6 human recombinant (Homo sapiens)	IC50	16
Cc1c(Cc2ccc(C(=O)NO)cc2)c2ccccc2n1CC1CCN(CC2(F)CCN(C)CC2)CC1	HDAC6 human recombinant (Homo sapiens)	IC50	13
CCC(F)(CC)CN1CCC(CCn2c(C)c(Cc3ccc(C(=O)NO)cc3)c3ccccc32)CC1	HDAC6 human recombinant (Homo sapiens)	IC50	870
Cc1c(Cc2ccc(C(=O)NO)cn2)c2ccccc2n1CCN1CCN(C)CC1	HDAC6 human recombinant (Homo sapiens)	IC50	340
Cc1c(Cc2ccc(C(=O)NO)cc2)c2ccccc2n1CCN1CCN(CC(C)(C)F)CC1	HDAC6 human recombinant (Homo sapiens)	IC50	25
CC(C)(F)CN1CCC(Cn2c(C3=CCOCC3)c(Cc3ccc(C(=O)NO)cc3)c3ccccc32)CC1	HDAC6 human recombinant (Homo sapiens)	IC50	352
O=C(NO)c1ccc(Cc2c(CN3CCOCC3)[nH]c3ccccc23)cc1	HDAC6 human recombinant (Homo sapiens)	IC50	24
Cc1c(Cc2ccc(C(=O)NO)cc2)c2ccccc2n1CC1CCN(Cc2ccccc2F)CC1	HDAC6 human recombinant (Homo sapiens)	IC50	306

###

Listing: IC50 of selected molecules
- target_desc: HDAC6 human recombinant (Homo sapiens, UniProt Q9UBN7)
- Sequence (Q9UBN7 whole entry): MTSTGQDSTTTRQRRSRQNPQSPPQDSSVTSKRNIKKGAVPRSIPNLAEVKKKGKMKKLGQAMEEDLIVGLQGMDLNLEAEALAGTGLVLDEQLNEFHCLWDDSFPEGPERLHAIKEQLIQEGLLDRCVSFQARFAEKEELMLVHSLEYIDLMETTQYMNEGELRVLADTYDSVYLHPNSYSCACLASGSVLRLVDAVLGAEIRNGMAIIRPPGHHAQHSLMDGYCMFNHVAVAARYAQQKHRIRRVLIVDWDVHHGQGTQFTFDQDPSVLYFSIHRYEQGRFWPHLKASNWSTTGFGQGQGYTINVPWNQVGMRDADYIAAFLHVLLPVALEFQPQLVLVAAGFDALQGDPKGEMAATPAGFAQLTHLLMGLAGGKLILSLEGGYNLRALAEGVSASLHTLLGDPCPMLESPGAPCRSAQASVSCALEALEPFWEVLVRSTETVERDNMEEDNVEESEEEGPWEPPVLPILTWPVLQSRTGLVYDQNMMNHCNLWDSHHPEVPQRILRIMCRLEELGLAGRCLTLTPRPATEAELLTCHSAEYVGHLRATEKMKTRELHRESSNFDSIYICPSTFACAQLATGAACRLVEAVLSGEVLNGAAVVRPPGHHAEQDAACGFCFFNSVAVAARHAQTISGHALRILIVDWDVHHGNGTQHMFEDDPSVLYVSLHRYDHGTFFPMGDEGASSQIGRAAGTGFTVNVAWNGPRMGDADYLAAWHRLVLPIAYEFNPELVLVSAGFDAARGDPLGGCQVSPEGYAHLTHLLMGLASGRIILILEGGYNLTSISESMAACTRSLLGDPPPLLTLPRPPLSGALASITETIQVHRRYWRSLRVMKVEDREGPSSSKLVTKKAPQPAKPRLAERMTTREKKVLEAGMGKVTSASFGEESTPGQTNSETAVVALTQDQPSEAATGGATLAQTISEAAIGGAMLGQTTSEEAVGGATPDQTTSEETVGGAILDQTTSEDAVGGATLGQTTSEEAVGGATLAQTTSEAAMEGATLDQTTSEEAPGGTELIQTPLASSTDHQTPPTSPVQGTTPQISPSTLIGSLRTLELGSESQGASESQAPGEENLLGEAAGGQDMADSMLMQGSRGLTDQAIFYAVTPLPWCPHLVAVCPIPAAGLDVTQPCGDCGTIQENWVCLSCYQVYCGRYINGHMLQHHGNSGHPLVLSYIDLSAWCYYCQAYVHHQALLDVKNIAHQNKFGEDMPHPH
- method_notes: HDAC6 enzyme activity inhibition (fluorimetric, in vitro)
- experimental_conditions: 37° C., 60 minutes; tested at 0.1, 1, 10, 100 and 1000 nM

molecule	target_desc	IC50, nM
Cc1c(Cc2ccc(C(=O)NO)cc2)c2ccccc2n1CCN1CCN(C(C)C)CC1 [Compound 196]	HDAC6 human recombinant (Homo sapiens, UniProt Q9UBN7)	6
CCCc1c(Cc2ccc(C(=O)NO)cc2)c2ccccc2n1CC1CCN(CC(C)(C)F)CC1 [Compound 602]	HDAC6 human recombinant (Homo sapiens, UniProt Q9UBN7)	300
Cc1c(Cc2ccc(C(=O)NO)cc2)c2ccccc2n1CC1CCN(CC2(F)CCCCC2)CC1 [Compound 698]	HDAC6 human recombinant (Homo sapiens, UniProt Q9UBN7)	430
Cc1c(Cc2ccc(C(=O)NO)cc2)c2ccccc2n1CC1CCN(CC(C)(C)F)C1 (stereo not shown) [Compound 713]	HDAC6 human recombinant (Homo sapiens, UniProt Q9UBN7)	246

###

- target_desc: HDAC6 human recombinant (Homo sapiens, UniProt Q9UBN7)
- method_notes: HDAC6 enzyme activity inhibition (fluorimetric, in vitro)
- experimental_conditions: 37° C., 60 minutes; tested at 0.1, 1, 10, 100 and 1000 nM
pIC50: −log10 of the molar value.
attribute_measured: pIC50

molecule	value_measured
Cc1c(Cc2ccc(C(=O)NO)cc2)c2ccccc2n1CCN1CCN(C)CC1	8.10
Cc1c(Cc2ccc(C(=O)NO)cc2)c2ccccc2n1CC1CCN(Cc2cc(F)c(F)cc2F)CC1	6.11
Cc1c(Cc2ccc(C(=O)NO)cc2)c2ccccc2n1CCN1CCOCC1	6.85
Cc1c(Cc2ccc(C(=O)NO)cc2)c2ccccc2n1CC1CCN(CC2(F)CCN(CC(C)(C)F)CC2)CC1	8.15
Cc1c(Cc2ccc(C(=O)NO)cc2)c2cc(F)ccc2n1CC1CCN(CC(C)(C)O)CC1	7.57
Cc1c(Cc2ccc(C(=O)NO)cc2)c2ccccc2n1CCN1CCN(CCO)CC1	8.10
CC(C)(F)CN1CCC(Cn2cc(C(O)c3ccc(C(=O)NO)cc3)c3cccnc32)CC1 (centres unmarked)	6.48
Cc1c(Cc2ccc(C(=O)NO)cc2)c2ccccc2n1CC1CCN(CC2(F)CCNCC2)CC1	7.62
